test_protocol: Differential scanning fluorimetry (protein thermal shift; TM1 Fc, TM2 Fab)
Assay type: physicochemical
measurement_setup: melting temperature of the Fab domain; Table 11
observed_property: TM2 (°C)
Reply numerically in °C, unit not repeated.

[Q] TM2 for SRP2196-A11 (antibody, V domains shown) VH: EVQLVESGGGLVQPGGSLRLSCAASGFNITGYYIHWVRQAPGKGLEWVGQISPNSGTTYDADSVKGRFTISADTSKNTAYLQMNSLRAEDTAVYYCARDSRRYVRGWDYWGQGTLVTVSS VL: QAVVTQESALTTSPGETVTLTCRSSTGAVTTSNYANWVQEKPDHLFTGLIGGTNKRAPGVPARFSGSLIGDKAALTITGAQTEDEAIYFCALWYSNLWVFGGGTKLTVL ?
[A] 73

[Q] Which TM2 value belongs to SRP2196-B07 (antibody, V domains shown) VH: EVQLVESGGGLVQPGGSLRLSCAASGFNITGYHIHWVRQAPGEGLEWVGYISPNSGATYYADSVEGRFTISADTSKNTAYLQMHSLRAEDTAVYYCTRDSRRYVRGWDYWGQGTLVTVSS VL: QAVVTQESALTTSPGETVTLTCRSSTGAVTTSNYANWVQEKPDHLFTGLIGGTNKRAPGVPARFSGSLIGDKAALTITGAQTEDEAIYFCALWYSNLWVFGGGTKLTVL ?
[A] 69

[Q] Query (molecule): SRP2196-B02 (antibody, V domains shown) VH: EVQLVESGGGLVQPGGSLRLSCAASGFNITQYYIHWVRQAPGKGLEWVGYISPNSGQTYDADSVKGRFTISADTSKNTAYLQMNSLRAEDTAVYYCARDSRRYVRSWDYWGQGTLVTVSS VL: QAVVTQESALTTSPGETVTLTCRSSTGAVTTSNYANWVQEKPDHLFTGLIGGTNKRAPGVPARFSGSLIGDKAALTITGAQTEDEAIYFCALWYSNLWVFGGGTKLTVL ; field requested: TM2
[A] 69

Data provenance: patent US12226490B2
